- test: Half life in hamster at 41 to 51 mg/kg, po measured upto 24 hrs LC-MS/MS analysis
- study conditions: chinese hamster, in vivo
outcome measure: half-life at 24 h (min)

| smiles string | measurement |
| --- | --- |
| C[C@]1(COc2ccc(C(F)(F)F)cn2)CCn2cc([N+](=O)[O-])nc2O1 | 43.2 |

----------
- test: Stability of compound in human liver microsomes assessed as percentage of parent compound remaining at 0.5 uM measured after 30 mins
- Type: ADME, Microsome
- study conditions: read-out: Stability
outcome measure: remaining at 0.5 h, 0.5 µM (%)

| compound | measurement |
| --- | --- |
| O=[N+]([O-])c1cn2c(n1)OC(COc1ncc(Cl)cn1)CC2 (stereo unspecified) | 99 |

----------
# MIC values compiled below
- Tested on: Mycobacterium tuberculosis
- test: Antitubercular activity against Mycobacterium tuberculosis H37Rv assessed as reduction in microbial growth under anaerobic condition by luminescence analysis
- Format: functional

| compound | MIC |
| --- | --- |
| CC1(COc2ccccc2)CCn2cc([N+](=O)[O-])nc2O1 (stereo unspecified) | 8.1 µM |
| CC1(COc2ccc(F)cn2)CCn2cc([N+](=O)[O-])nc2O1 (stereo unspecified) | 19 µM |
| C[C@@]1(COc2ccc(C(F)(F)F)nc2)CCn2cc([N+](=O)[O-])nc2O1 | > 128 µM |
| CC1(COc2ccc(F)cc2)CCn2cc([N+](=O)[O-])nc2O1 (stereo unspecified) | 5 µM |
| CC1(COc2ccc(Cl)cc2)CCn2cc([N+](=O)[O-])nc2O1 (stereo unspecified) | 7 µM |
| CC1(COc2ccc(C(F)(F)F)nc2)CCn2cc([N+](=O)[O-])nc2O1 (stereo unspecified) | 33 µM |

----------
# AUC(0-t) at 24 h per record follows
- test: AUClast in mouse at 25 mg/kg, po measured upto 24 hrs LC-MS/MS analysis
- study conditions: in vivo

| molecule | AUC(0-t) at 24 h / ng·h/mL |
| --- | --- |
| O=[N+]([O-])c1cn2c(n1)OC(COc1ccc(C(F)(F)F)nc1)CC2 (stereo not drawn) | 15100 |
| C[C@@]1(COc2ccc(C(F)(F)F)cn2)CCn2cc([N+](=O)[O-])nc2O1 | 183000 |
| C[C@]1(COc2ccc(C(F)(F)F)nc2)CCn2cc([N+](=O)[O-])nc2O1 | 37200 |
| C[C@@]1(COc2ccc(C(F)(F)F)nc2)CCn2cc([N+](=O)[O-])nc2O1 | 37200 |
| CC1(COc2ccc(C(F)(F)F)nc2)CCn2cc([N+](=O)[O-])nc2O1 (stereo not drawn) | 41800 |
| O=[N+]([O-])c1cn2c(n1)OC(COc1ncc(Cl)cn1)CC2 (stereo not drawn) | 3830 |
| C[C@]1(COc2ccc(C(F)(F)F)cn2)CCn2cc([N+](=O)[O-])nc2O1 | 39600 |
| CC1(COc2ccc(Cl)cn2)CCn2cc([N+](=O)[O-])nc2O1 (stereo not drawn) | 57800 |

----------
Property: Vd at 24 h; scope: individual molecules
- test: Volume of distribution at steady state in mouse at 1 mg/kg, iv measured upto 24 hrs LC-MS/MS analysis
- study conditions: in vivo

| molecule | Vd at 24 h |
| --- | --- |
| CC1(COc2ccc(C(F)(F)F)nc2)CCn2cc([N+](=O)[O-])nc2O1 (configuration not stated) | 0.46 L/kg |
| O=[N+]([O-])c1cn2c(n1)OC(COc1ccc(C(F)(F)F)nc1)CC2 (configuration not stated) | 0.47 L/kg |
| C[C@]1(COc2ccc(C(F)(F)F)nc2)CCn2cc([N+](=O)[O-])nc2O1 | 0.91 L/kg |
| CC1(COc2ccc(Cl)cn2)CCn2cc([N+](=O)[O-])nc2O1 (configuration not stated) | 0.5 L/kg |
| O=[N+]([O-])c1cn2c(n1)OC(COc1ncc(Cl)cn1)CC2 (configuration not stated) | 0.37 L/kg |
| C[C@@]1(COc2ccc(C(F)(F)F)nc2)CCn2cc([N+](=O)[O-])nc2O1 | 0.75 L/kg |
| CC1(COc2ccc(C(F)(F)F)cn2)CCn2cc([N+](=O)[O-])nc2O1 (configuration not stated) | 1.3 L/kg |
